Tested on: COLO 205 colon
Assay: NCI tumour cell line growth inhibition, 48 h
readout: TGI

Examples with answers:
{"columns": ["compound", "target", "reported_value"],
 "data": [
  ["CCOc1ccccc1NC(=O)CCC(=O)OC", "COLO 205 colon", "> 100 µM"],
  ["C[N+]1(C)CCCC1C(=O)[O-] (stereo not given)", "COLO 205 colon", "> 100 µM"],
  ["C=CC(=O)Nc1ccc(Nc2nccc(-c3ccc(N4CCCC4)c(C#N)c3)n2)cc1", "COLO 205 colon", "> 25 µM"],
  ["c1ccc(SC2(Sc3ccccc3)CCCC2)cc1", "COLO 205 colon", "> 100 µM"],
  ["O=C(O)[C@H]1[C@@H](C2CCCCC2)O[C@@H](C2CCCCC2)O[C@H]1C(F)(F)F", "COLO 205 colon", "77.9 µM"]
]}

Count: 5. Required value per item: TGI.
1. COc1cc(CCc2cccnc2)cc(OC)c1OC
2. COc1ccc2c(c1)C(=O)c1c-2n(CCCN)c(=O)c2ccccc12
3. C1OCC2S[C@@H]3COCO[C@@H]3C2O1 (stereo not given in full)
4. CCCC(=O)O
5. c1ccc(C2=NC3(CCCCC3)N(c3nc4ccccc4s3)N2)nc1

Result:
1: > 100 µM; 2: 0.807 µM; 3: > 100 µM; 4: 9160 µM; 5: 41.4 µM

###

Tested on: SF-539 CNS
Assay: NCI tumour cell line growth inhibition, 48 h
readout: TGI

Examples with answers:
{"columns": ["compound", "TGI"],
 "data": [
  ["COc1cccc2c1OC1c3ccccc3OCC1C2 (stereo unspecified)", "> 100 µM"],
  ["O=C(CSCC(=O)N/N=C/c1cc(I)cc(I)c1O)N/N=C/c1cc(I)cc(I)c1O", "38.1 µM"],
  ["COc1cc(CCc2cccnc2)cc(OC)c1OC", "> 100 µM"],
  ["CCOC(=O)c1cnc(-n2[nH]c(C)c(CCO)c2=O)[nH]c1=O", "> 100 µM"],
  ["CC1=CC2CC(C)=C(CC[C@]3(C)CC[C@H]([C@@H](C)C(=O)O)OO3)C(C)(C)C2CC1 (stereo partly specified)", "2.68 µM"],
  ["C[N+]1(C)CCCC1C(=O)[O-] (stereo unspecified)", "> 100 µM"]
]}

Count: 8. Required value per item: TGI.
1. CCC(C)[C@H](NC(=O)[C@H](Cc1ccccc1)NC(=O)N(CC)c1ccccc1)C(=O)N[C@@H](CC(C)C)C(=O)OC (stereo partly specified)
2. COC(=O)C(=O)C(C(=O)Nc1cccc(C)c1C)C1Sc2ccccc2NC1=O (stereo unspecified)
3. CC[P+](C)(Cc1ccccc1)c1ccccc1 (stereo unspecified)
4. CCCCNC1CCC2(SCCS2)c2[nH]c3ccccc3c21 (stereo unspecified)
5. O=C(Nc1cccc2ccccc12)Oc1ccccc1C1CCCCC1
6. O=P([O-])(O)OP(=O)([O-])O.[NH-][C@H]1CCCC[C@@H]1[NH-].[OH-].[OH-].[Pt+4]
7. COc1ccc(-c2[nH]ncc2-c2cc3c(c(OC)c2)OCC(=O)N3)cc1
8. C=C(C)C(=O)CC[C@@H](C)[C@H]1[C@@H](OC2OC(CO)C(O)C(O)C2O)C[C@@]2(C)[C@@H]3C[C@H](O)C4C(C)(C)[C@@H](OC5OC(CO)C(O)C(O)C5O)CC[C@@]45C[C@@]35CC[C@]12C (stereo partly specified)

Result:
1. 93.8 µM
2. > 25 µM
3. > 100 µM
4. 31.6 µM
5. 32 µM
6. 57.6 µM
7. 2.16 µM
8. > 100 µM

Count: 7. Required value per item: TGI.
1. OCCOc1ccc(-c2cc(-c3ccccn3)nc(-c3ccccn3)c2)cc1
2. Nc1nc(N)c2ncn(CC3CCC(CO)C3)c2n1 (stereo unspecified)
3. C=CCC1(O)c2ccccc2C(=O)c2c(O)ccc(O)c21 (stereo unspecified)
4. CCOc1cc2c(cc1O)/C(=N\N)C[C@@H]1[C@@H]2CC[C@]2(C)[C@@H](O)CC[C@@H]12
5. CC(=O)NC1C(OCc2ccccc2)OC(CO)C(O)C1OCC(=O)NC(C)C(=O)NC(CCC(=O)NCCCCNc1ccc([N+](=O)[O-])c2[nH]c3ccccc3c(=O)c12)C(N)=O (stereo unspecified)
6. O=c1[nH]c(=O)n(C2CC(O)C(CO)O2)cc1I (stereo unspecified)
7. COc1cc2c(/C=N\N=C(N)N)c(Cl)[nH]c2cc1C

Result:
["2.26 µM", "> 100 µM", "> 33.7 µM", "38 µM", "> 100 µM", "> 100 µM", "25 µM"]

Count: 6. Required value per item: TGI.
1. Cc1nc2sccn2c1/C=C1/C(=O)Nc2ccccc21
2. O=c1cc(CNC2CCCC2)[nH]c(=O)[nH]1
3. CCN(CC)CCNC(=O)c1ccccc1NC(=O)C(=O)Nc1ccccc1C(=O)NCCN(CC)CC
4. O=C(CC1=Nc2nnc(-c3nnc4n3C(=O)C(CC(=O)c3cccnc3)=N4)n2C1=O)c1cccnc1
5. COc1ccc(/C=C2\CN(C)Cc3c2nc(N)nc3-c2ccc(OC)cc2)cc1
6. CCCN(CCC)CCCNCc1cc(I)cc(C)c1O

Result:
1: 17.8 µM; 2: > 100 µM; 3: 62.2 µM; 4: > 100 µM; 5: > 100 µM; 6: 27.9 µM

###

Test system: XF 498 CNS
Test: NCI tumour cell line growth inhibition, 48 h
readout: TGI

Examples with answers:
{"columns": ["molecule", "TGI"],
 "data": [
  ["O=C(CSc1nnc(-c2ccc(N=Cc3ccc(Cl)cc3)cc2)o1)Nc1ccccc1Cl", "> 100 µM"],
  ["Cc1c2cc[nH]c(C(F)(F)F)c2cc2c1nc1ccccc12", "> 19.8 µM"],
  ["N#C/C(=C\\c1ccccc1O)C(N)=O", "> 100 µM"]
]}

Count: 3. Required value per item: TGI.
1. CCC1(C)NN=c2s/c(=C/c3ccc(OC)cc3)c(=O)n2N1 (configuration not stated)
2. Cc1ccc(C)c(NC(=O)C(=O)CC(=O)C2CCOC2=O)c1 (configuration not stated)
3. C=C1C(=O)OC2/C=C(\C)C(OC(C)=O)C3OC3C(C)(O)CC(OC(=O)/C(C)=C/C)C12 (configuration not stated)

Result:
1. > 100 µM
2. > 100 µM
3. 18.2 µM

Count: 6. Required value per item: TGI.
1. CC[P+](C)(Cc1ccccc1)c1ccccc1 (configuration not stated)
2. COC(=O)C(=O)C(C(=O)Nc1cccc(C)c1C)C1Sc2ccccc2NC1=O (configuration not stated)
3. N#Cc1cccc(N2C(=O)c3c(c(-c4ccccc4)c(-c4ccc(Sc5ccc(-c6c(-c7ccccc7)c7c(c(-c8ccccc8)c6-c6ccccc6)C(=O)N(c6cccc(C#N)c6)C7=O)cc5)cc4)c(-c4ccccc4)c3-c3ccccc3)C2=O)c1
4. C1=C(c2ccccc2)CN(c2ccccc2)OC1
5. [O-]/[N+](=C\c1ccccc1)[C@H](COCc1ccccc1)c1ccccc1
6. COc1cc2c(cc1O)C=NCC2

Result:
["> 100 µM", "> 25 µM", "85 µM", "> 100 µM", "> 100 µM", "> 100 µM"]

###

Consider the following molecules; for each one, report its TGI.
Test system: RXF 393 renal
Assay: NCI tumour cell line growth inhibition, 48 h
Answers are plain numbers, in µM.

Examples with answers:
{"columns": ["molecule", "target", "reported_value"],
 "data": [
  ["CC1=CCC[C@@]2(C)C(CC[C@@H]2C(C)/C=C/C(C)C)c2ccc(cc2C(=O)O)C[C@@H](O)CC1 (stereo partly drawn)", "RXF 393 renal", 30],
  ["COc1cc2c(/C=N\\N=C(N)N)c(Cl)[nH]c2cc1C", "RXF 393 renal", 30.1],
  ["O=C(c1ccccc1)c1c(NCC(O)CN2CCCC2)n(Cc2ccccc2)c(=O)n(Cc2ccccc2)c1=O (stereo not drawn)", "RXF 393 renal", 53.3]
]}

Alright, here's another molecule for you.
Per the records, this molecule ( `COc1ccc2c(c1)C(=O)c1c-2n(CCCN)c(=O)c2ccccc12` ) has TGI equal to 0.91

###

System: HCT-15 colon
Experiment: NCI tumour cell line growth inhibition, 48 h; in the data active = GI50 below about 0.43 µM; inactive = the rest
Choose one outcome from this list and give only that: 1.0 (active), 0.0 (inactive)

{"columns": ["compound", "target", "cat"],
 "data": [
  ["COc1cc2c(/C=N\\N=C(N)N)c(Cl)[nH]c2cc1C", "HCT-15 colon", 0.0]
]}

Ask: What is the recorded call for this compound in the test? `Cc1c2cc[nH]c(=O)c2c(C)c2c1[nH]c1cc(OCCN3CCN(C)CC3)ccc12`
Result: 0.0

Ask: What is the recorded call for this compound in the test? `C=C(Cn1c(=O)c2ccccc2c2ccccc21)c1ccc(C(=O)Nc2ccccc2N)cc1`
Result: 0.0
